B1: library; a variant is named by its letters at N, in order (parent)
chain: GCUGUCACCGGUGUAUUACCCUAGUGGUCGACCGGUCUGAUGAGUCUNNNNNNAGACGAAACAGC

variants of: B1; test: FACS-Seq fitted mean relative fluorescence mCherry/BFP with ligand (log10 relative fluorescence); ligand: hypoxanthine (xanthine aptamer); ligand concentration (+) FACS-Seq: 5 mM; higher = higher reporter protein expression; settings: HEK293T, ligand present: yes
FACS-Seq fitted mean (log10) reference
Could you respond with only the numeric value?

1) GCUGUCACCGGUGUAUUACCCUAGUGGUCGACCGGUCUGAUGAGUCUGGAGUGAGACGAAACAGC: 0.7
2) GCUGUCACCGGUGUAUUACCCUAGUGGUCGACCGGUCUGAUGAGUCUGCCAAAAGACGAAACAGC: 0.612
3) GCUGUCACCGGUGUAUUACCCUAGUGGUCGACCGGUCUGAUGAGUCUGUUUUCAGACGAAACAGC: -0.0383
4) GCUGUCACCGGUGUAUUACCCUAGUGGUCGACCGGUCUGAUGAGUCUAAGAUGAGACGAAACAGC: 0.578
5) GCUGUCACCGGUGUAUUACCCUAGUGGUCGACCGGUCUGAUGAGUCUUAAAAAAGACGAAACAGC: 0.22

Query: State the recorded FACS-Seq fitted mean (log10) for this entry: `GCUGUCACCGGUGUAUUACCCUAGUGGUCGACCGGUCUGAUGAGUCUGCCCAGAGACGAAACAGC`
Reply: 0.24

Query: Try this variant next: `GCUGUCACCGGUGUAUUACCCUAGUGGUCGACCGGUCUGAUGAGUCUAGCUGCAGACGAAACAGC`
Reply: 0.755

Query: Try this variant next: `GCUGUCACCGGUGUAUUACCCUAGUGGUCGACCGGUCUGAUGAGUCUUUGUGGAGACGAAACAGC`
Reply: 0.511

Query: Try this variant next: `GCUGUCACCGGUGUAUUACCCUAGUGGUCGACCGGUCUGAUGAGUCUAUUGGUAGACGAAACAGC`
Reply: 0.601

Query: Try this variant next: `GCUGUCACCGGUGUAUUACCCUAGUGGUCGACCGGUCUGAUGAGUCUGUACGGAGACGAAACAGC`
Reply: 0.337

Query: Try this variant next: `GCUGUCACCGGUGUAUUACCCUAGUGGUCGACCGGUCUGAUGAGUCUAGCACAAGACGAAACAGC`
Reply: -0.513
